# credit: ChEMBL document CHEMBL1144257

IC50 overview
# SUBJECT_OF_TEST: Glycogen phosphorylase, liver form (Homo sapiens)
# Sequence (P06737 whole entry): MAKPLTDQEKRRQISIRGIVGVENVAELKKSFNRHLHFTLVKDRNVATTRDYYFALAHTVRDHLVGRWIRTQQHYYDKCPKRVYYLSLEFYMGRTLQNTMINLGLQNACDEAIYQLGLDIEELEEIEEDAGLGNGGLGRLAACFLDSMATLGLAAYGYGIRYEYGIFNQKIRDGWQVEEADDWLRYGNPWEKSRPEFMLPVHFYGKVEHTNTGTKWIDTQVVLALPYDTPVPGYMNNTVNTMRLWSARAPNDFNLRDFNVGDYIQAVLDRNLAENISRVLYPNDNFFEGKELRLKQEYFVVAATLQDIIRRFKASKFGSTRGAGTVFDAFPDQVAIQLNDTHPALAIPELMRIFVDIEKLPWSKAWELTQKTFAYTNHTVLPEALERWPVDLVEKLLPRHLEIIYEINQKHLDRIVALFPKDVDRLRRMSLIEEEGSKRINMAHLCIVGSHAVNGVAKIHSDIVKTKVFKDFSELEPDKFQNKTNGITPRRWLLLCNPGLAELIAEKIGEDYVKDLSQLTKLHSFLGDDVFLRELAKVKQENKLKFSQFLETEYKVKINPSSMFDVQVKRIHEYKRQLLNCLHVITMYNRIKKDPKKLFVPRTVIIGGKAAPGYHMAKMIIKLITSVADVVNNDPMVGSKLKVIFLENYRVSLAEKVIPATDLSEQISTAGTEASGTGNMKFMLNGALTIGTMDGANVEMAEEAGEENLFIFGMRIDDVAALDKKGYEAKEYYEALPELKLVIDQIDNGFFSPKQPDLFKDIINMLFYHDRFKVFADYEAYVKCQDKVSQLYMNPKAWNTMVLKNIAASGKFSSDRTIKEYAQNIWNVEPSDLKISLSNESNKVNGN
# TEST_SUMMARY: Inhibitory concentration against glycogen phosphorylase
Numbers only here, please. The scale is nM.

Below, each entry is followed by its recorded IC50 result.
>>> value("CN(C(=O)CNC(=O)c1cc2cc(Cl)ccc2[nH]1)C(C)(C)C")
670
>>> value("CC(C)OCC(O)CN(C(=O)CNC(=O)c1cc2cc(Cl)ccc2[nH]1)C1CCCC1 (stereo not given)")
930
>>> value("CCCN(CCO)C(=O)CNC(=O)c1cc2cc(Cl)ccc2[nH]1")
150

Given the compound N#CCN(C(=O)CNC(=O)c1cc2cc(Cl)ccc2[nH]1)C1CCCC1 , what is its reported IC50? 30

Given the compound O=C(O)CN(C(=O)CNC(=O)c1cc2cc(Cl)ccc2[nH]1)C1CCCC1 , what is its reported IC50? 260
